Experimental System: human ALK5 (Homo sapiens, UniProt P36897)
Measurement Notes: ALK5 Enzyme Assay 2 (fluorescence polarisation probe displacement)
Assay type: binding
Parameters: 6His tagged human ALK5 (residues162-503) was grown and purified from insect cells; 6His; made in house; host or cells: insect cells
Protocol Conditions: read-out: EAA2: activity (μM) using Enzyme Assay 2
Field 'label' (enum: condition met / condition not met). Set to condition met when IC50 is strictly under 0.02 µM; else condition not met.

                             molecule_smiles                       experimental_system     classification
 0  Cc1ccc(Oc2ccnc(Nc3ccc(S(=O)(=O)NC4CCC4)cc3)c2)c(C)n1  human ALK5 (Homo sapiens, UniProt P36897)  condition not met
 1  Cc1ccc(Oc2ccnc(Nc3ccc(CO)cc3)c2)c(-c2ccccc2)n1  human ALK5 (Homo sapiens, UniProt P36897)      condition met
 2  Cc1cc(Oc2ccnc(Nc3cccc(C#N)c3)c2)c(-c2ccccn2)nc1C  human ALK5 (Homo sapiens, UniProt P36897)      condition met
 3  COc1ccc(NC(=O)N2CCN(Cc3cccc(Nc4cc(Oc5ccc(C)nc5C)ccn4)c3)CC2)cc1  human ALK5 (Homo sapiens, UniProt P36897)  condition not met
 4    CNC(=O)c1nc(C)ccc1Oc1ccnc(Nc2ccccc2)c1  human ALK5 (Homo sapiens, UniProt P36897)  condition not met
 5  Cc1ccc(Oc2ccnc(Nc3cccc(CN4CCN(S(C)(=O)=O)CC4)c3)c2)c(C)n1  human ALK5 (Homo sapiens, UniProt P36897)      condition met
 6  COc1cc(Nc2cc(Oc3cc(C)c(C)nc3-c3nc(C)c(C)s3)ccn2)cc(OC)c1OC  human ALK5 (Homo sapiens, UniProt P36897)  condition not met
 7  Cc1ccc(Oc2ccnc(Nc3ccc(CC#N)cc3)c2)c(-c2ccccn2)n1  human ALK5 (Homo sapiens, UniProt P36897)  condition not met
 8  Cc1ccc(Oc2ccnc(Nc3cccc(CN4CCN(S(=O)(=O)c5cccnc5-n5cncn5)CC4)c3)c2)c(C)n1  human ALK5 (Homo sapiens, UniProt P36897)      condition met
 9  Cc1ccc(Oc2ccnc(Nc3ccccc3)c2)c(C(=O)NCc2ccccc2)n1  human ALK5 (Homo sapiens, UniProt P36897)  condition not met
10  Cc1ccc(Oc2ccnc(Nc3ccc(C(=O)NC4CCN(C)CC4)cc3)c2)c(C)n1  human ALK5 (Homo sapiens, UniProt P36897)      condition met
11   Cc1ccc(Oc2ccnc(Nc3cccc(C#N)c3)c2)c(C)n1  human ALK5 (Homo sapiens, UniProt P36897)  condition not met
12  Cc1ccc(Oc2ccnc(Nc3cccc(C(=O)N4CCN(C)CC4)c3)c2)c(C)n1  human ALK5 (Homo sapiens, UniProt P36897)  condition not met
13  Cc1cc(Oc2ccnc(Nc3cccc(C(=O)N4CCC4)c3)c2)c(-c2ccccn2)nc1C  human ALK5 (Homo sapiens, UniProt P36897)  condition not met
14  Cc1cc(Oc2ccnc(Nc3ccc(C(=O)NCCN)cc3)c2)c(-c2ccccn2)nc1C  human ALK5 (Homo sapiens, UniProt P36897)      condition met
15  Cc1ccc(Oc2ccnc(Nc3ccc(S(=O)(=O)Nc4ccccn4)cc3)c2)c(C)n1  human ALK5 (Homo sapiens, UniProt P36897)  condition not met
16  Cc1cc(Oc2ccnc(Nc3ccc(N4CCN(C)CC4)cc3)c2)c(-c2ccccn2)nc1C  human ALK5 (Homo sapiens, UniProt P36897)      condition met
17  Cc1cc(Oc2ccnc(Nc3ccc(C#N)cc3)c2)c(-c2ccccn2)nc1C  human ALK5 (Homo sapiens, UniProt P36897)  condition not met

###

Experimental System: human ALK5 (Homo sapiens, UniProt P36897)
Sequence (P36897 162-503): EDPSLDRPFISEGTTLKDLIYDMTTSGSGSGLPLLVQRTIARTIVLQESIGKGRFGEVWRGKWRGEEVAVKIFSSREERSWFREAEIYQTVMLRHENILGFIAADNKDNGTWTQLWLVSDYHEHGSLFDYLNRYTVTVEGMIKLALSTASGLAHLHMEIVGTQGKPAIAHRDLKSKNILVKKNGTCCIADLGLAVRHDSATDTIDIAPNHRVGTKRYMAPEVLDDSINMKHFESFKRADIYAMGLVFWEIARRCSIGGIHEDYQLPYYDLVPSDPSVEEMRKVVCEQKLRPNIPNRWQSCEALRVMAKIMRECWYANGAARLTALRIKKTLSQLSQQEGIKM
Measurement Notes: ALK5 Enzyme Assay 2 (fluorescence polarisation probe displacement)
Format: binding
Set-up: 6His tagged human ALK5 (residues162-503) was grown and purified from insect cells; 6His; made in house; host or cells: insect cells
Protocol Conditions: read-out: EAA2: activity (μM) using Enzyme Assay 2
# label = yes (1) if IC50 < 0.05 µM else no (0)

In [3]: df
Out[3]:
                                    compound  classification
 0  Cc1cc(Oc2ccnc(Nc3cccc(-c4cnco4)c3)c2)c(-c2ccccn2)nc1C         yes (1)
 1  Cc1ccc(Oc2ccnc(Nc3ccc(C(N)=O)cc3)c2)c(-c2ccc(F)cc2)n1         yes (1)
 2  Cc1ccc(Oc2ccnc(Nc3cccc(C(=O)N4CCCC(C(N)=O)C4)c3)c2)c(C)n1 (stereo not drawn)         yes (1)
 3  COc1cc(Nc2cc(Oc3ccc(C)nc3-c3cccc(Cl)c3)ccn2)cc(OC)c1OC         yes (1)
 4  COc1ccc(-c2nc(C)ccc2Oc2ccnc(Nc3cc(OC)c(OC)c(OC)c3)c2)cn1          no (0)
 5  Cc1ccc(Oc2ccnc(Nc3cccc(C(=O)O)c3)c2)c(C)n1         yes (1)
 6  Cc1ccc(Oc2ccnc(Nc3ccc(S(N)(=O)=O)cc3)c2)c(-c2ccccn2)n1         yes (1)
 7  Cc1ccc(Oc2ccnc(Nc3cccc(C(=O)N4CCC(S(C)(=O)=O)C4)c3)c2)c(C)n1 (stereo not drawn)         yes (1)
 8  Cc1ccc(Oc2ccnc(Nc3cccc(CN4CCN(CC(=O)NC5CC5)CC4)c3)c2)c(C)n1         yes (1)
 9  Cc1cc(Oc2ccnc(Nc3ccc(C(=O)NCCCNC(=O)OC(C)(C)C)cc3)c2)c(-c2ccccn2)nc1C         yes (1)
10  CCn1nccc1Nc1cc(Oc2cc(C)c(C)nc2-c2ccccn2)ccn1         yes (1)
11  COc1cc(Nc2cc(Oc3cccnc3-c3ccccc3C#N)ccn2)cc(OC)c1OC         yes (1)
12  CC(=O)Nc1ccc(Nc2cc(Oc3cc(C)c(C)nc3-c3ccccn3)ccn2)cc1         yes (1)
13  Cc1ccc(Oc2ccnc(Nc3cccc(S(=O)(=O)Nc4ccccc4)c3)c2)c(C)n1          no (0)
14  Cc1ccc(Oc2ccnc(Nc3cccc(C(=O)N(C4CC4)C4CCN(C)CC4)c3)c2)c(C)n1         yes (1)
15  Cc1cc(Oc2ccnc(Nc3ccc(C(=O)NCCNC(=O)OC(C)(C)C)cc3)c2)c(-c2ccccn2)nc1C         yes (1)
16  CCc1ccc(Oc2ccnc(Nc3cc(OC)c(OC)c(OC)c3)c2)c(-c2cccc(C)n2)n1         yes (1)
17  Cc1cc(Oc2ccnc(Nc3cc(CO)cc(S(N)(=O)=O)c3)c2)c(-c2ccccn2)nc1C          no (0)
18  COc1cc(Nc2cc(Oc3ccc(C)nc3-c3cccnc3)ccn2)cc(OC)c1OC          no (0)
19  Cc1ccc(Oc2ccnc(Nc3cccc(CN4CCN(C)CC4)c3)c2)c(C)n1         yes (1)
20  Cc1ccc(Oc2ccnc(Nc3ccc(S(=O)(=O)NCCN4CCN(C)CC4)cc3)c2)c(C)n1          no (0)
21  Cc1cc(Oc2ccnc(Nc3cc(F)ccc3F)c2)c(-c2ccccn2)nc1C         yes (1)

###

Experimental System: human ALK5 (Homo sapiens)
Measurement Notes: ALK5 Enzyme Assay 2 (fluorescence polarisation probe displacement)
Assay type: binding
Set-up: 6His tagged human ALK5 (residues162-503) was grown and purified from insect cells; 6His; made in house; host or cells: insect cells
Protocol Conditions: read-out: EAA2: activity (μM) using Enzyme Assay 2
Reported values of IC50 for individual entries
Property Label: IC50 (µM)

In [3]: df
Out[3]:
                            molecule_smiles  property_label  measured_number
0  Cc1ccc(Oc2ccnc(Nc3ccc(C(=O)N(C)C)cc3)c2)c(C)n1            IC50            0.088
1  CCCc1nc(C)ccc1Oc1ccnc(Nc2cc(OC)c(OC)c(OC)c2)c1            IC50            0.597
2  Cc1ccc(Oc2ccnc(Nc3ccc(C(N)=O)cc3)c2)c(-c2ccccc2)n1            IC50           0.0137
3  COC(=O)c1cccc(Nc2cc(Oc3cc(C)c(C)nc3-c3ccccn3)ccn2)c1            IC50           0.0279
